The values you see were collected from patent US12281162.

# SUBJECT OF TEST: T1, human G-protein-coupled receptor family C group 5 member D (GPRC5D) (human, UniProt Q9NZD1 1-345)
# T1 construct: whole, on cells; also called human GPRC5D protein
# MEASUREMENT PROTOCOL: FACS, CHO-K1/human GPRC5D, hybridoma supernatant
EXPERIMENTAL ENDPOINT: LogEC50

Solved cases (2 shown):
BINDER | LogEC50
29A7H11H4C12 (antibody, V domains shown, murine antibody from hybridoma supernatant) VH: EVQLQQSGPELVKPGASMKISCKASGYSFTGYTMHWVKQSHGENLEWIGLINPYNGGTNYNQKFKGKATLTVDKSSSTAYMELLSLTSEDSAVYYCSRWGLRRAMDYWGQGTSVTVSS VL: DIVMTQSQKFMSTSIGDRVSVTCKASQNVGSNVAWYQQKPGQSPKALIYSASYRYSGVPDRFTGNGSGTDFTLTISNVQSEDLAEYFCQQYYNSPWTFGGGTKLEIK | 0.738
14F3H2 (antibody, V domains shown, murine antibody from hybridoma supernatant) VH: EVQLQQSGPELVKPGASMKISCKASGYSFTGYTMNWVKQSHGKNLEWIGLINPYNGGIRYNQKFKGKATLTVDKSSSTAYMELLSLTSEDSAVYYCARWGLRRAMDYWGQGTSVTVSS VL: DIVMTQSQKFMSTSVGDRVSVTCKASQNVGTNVAWYQQKPGQSPKALIYSASYRYSGVPDRFTGSGSGTDFTLTISNVQSEDLAEYFCQQYNSSPWTFGGGTKLEIK | 0.874

Please report LogEC50 for the following binder: 29B2C10 (antibody, V domains shown, murine antibody from hybridoma supernatant) VH: EVQLQQSGPELVKPGASMKLSCKASGYSFTGYTMHWVKQSHGENLEWIGLINPYNGGTNYNQKFKGKATLTVDKSSSTAYMELLSLTSEDSAVYYCSRWGLRRAMDYWGQGTSVTVSS VL: DIVMTQSQKFMSTSVGDRVSVTCKASQNVGSNVAWYQQKPGQSPKALIYSASYRYSGVPDRFTGNGSGTDFTLTISNVQSEDLAEYFCQQYYNSPWTFGGGTKLEIK
0.62
